test system: MIA PaCa-2; assay: Inhibition of chemoresistant human MIAPaCa2 cell proliferation after 48 hrs by MTT assay; type: functional
Active and inactive are the calls of the source. No cut-off for these calls is given here.
Assay Metric: inhibition

Here CCCCCc1ccc(C#Cc2nc(C(=O)OC)n([C@@H]3O[C@H](COC(C)=O)[C@@H](OC(C)=O)[C@H]3OC(C)=O)n2)cc1 was tested on MIA PaCa-2, and its inhibition came to inactive

Here CCCCCc1ccc(-c2nc(C(N)=O)n([C@@H]3O[C@H](CO)[C@@H](O)[C@H]3O)n2)cc1 was tested on MIA PaCa-2, and its inhibition came to inactive

Here CCCCCc1ccc(C#Cc2nc(C(N)=O)n(COCCO)n2)cc1 was tested on MIA PaCa-2, and its inhibition came to inactive
